Overview of recorded growth at 10 µM for various compounds
Test system: MDA-MB-468
Assay: Growth inhibition of human MDA-MB-468 cells assessed as growth percentage at 10 uM incubated for 48 hrs by sulforhodamine B assay relative to control
Type: functional
Settings: MDA-MB-468, 48 h, read-out: Activity
Numbers only; they are read as %.

A selection of reference data follows.
CC1=C(C(=O)OCc2ccccc2)C(c2ccc3c(c2)OCO3)NC(=O)N1 (racemic): 92
CC1(C)CC(=O)C2=C(C1)NC(=O)NC2c1ccc2c(c1)OCO2 (racemic): 118
CC1=C(C(=O)OCC(C)C)C(c2ccc3c(c2)OCO3)NC(=S)N1 (racemic): 94.6

Find the recorded growth at 10 µM belonging to CC1=C(C(=O)OCC(C)C)C(c2ccc3c(c2)OCO3)NC(=O)N1 (racemic) and report it. 100

Find the recorded growth at 10 µM belonging to O=C1C2=C(NC(=S)NC2c2ccc3c(c2)OCO3)c2ccccc21 (racemic) and report it. 108

====

Test system: A549
Test: Growth inhibition of human A549/ATCC cells assessed as growth percentage at 10 uM incubated for 48 hrs by sulforhodamine B assay relative to control
Format: functional
Details: A549, 48 h, read-out: Activity
Overview of recorded growth at 10 µM for various compounds
Numbers only; they are read as %.

A selection of reference data follows.
CC(=O)C1=C(C)NC(=S)NC1c1ccc2c(c1)OCO2 (racemic): 105
CC1(C)CC(=O)C2=C(C1)NC(=O)NC2c1ccc2c(c1)OCO2 (racemic): 108

Item CC(=O)N1C(=S)NC(C)=C(C(=O)OCc2ccccc2)C1c1ccc2c(c1)OCO2 (racemic) with A549 - growth at 10 µM? 95.6

Item CC(=O)C1=C(C)NC(=O)NC1c1ccc2c(c1)OCO2 (racemic) with A549 - growth at 10 µM? 103

Item CC1=C(C(=O)OC(C)C)C(c2ccc3c(c2)OCO3)NC(=S)N1 (racemic) with A549 - growth at 10 µM? 104

Item CC1=C(C(=O)OCC(C)C)C(c2ccc3c(c2)OCO3)NC(=S)N1 (racemic) with A549 - growth at 10 µM? 99

Item CC(=O)C1=C(C)Nc2nc3ccccc3n2C1c1ccc2c(c1)OCO2 (racemic) with A549 - growth at 10 µM? 99

Item COCCOC(=O)C1=C(C)NC(=O)NC1c1ccc2c(c1)OCO2 (racemic) with A549 - growth at 10 µM? 101

Item COCCOC(=O)C1=C(C)NC(=S)N(C(C)=O)C1c1ccc2c(c1)OCO2 (racemic) with A549 - growth at 10 µM? 99.2

Item COCCOC(=O)C1=C(C)NC(=S)NC1c1ccc2c(c1)OCO2 (racemic) with A549 - growth at 10 µM? 101

Item CC1=C(C(=O)OCC(C)C)C(c2ccc3c(c2)OCO3)NC(=O)N1 (racemic) with A549 - growth at 10 µM? 109

Item CC1=C(C(=O)OCc2ccccc2)C(c2ccc3c(c2)OCO3)NC(=O)N1 (racemic) with A549 - growth at 10 µM? 106

Item O=C1C2=C(NC(=S)NC2c2ccc3c(c2)OCO3)c2ccccc21 (racemic) with A549 - growth at 10 µM? 107

Item CC1=C(C(=O)OCc2ccccc2)C(c2ccc3c(c2)OCO3)NC(=S)N1 (racemic) with A549 - growth at 10 µM? 93.7

Item CC(=O)N1C(=S)NC(C)=C(C(=O)OCC(C)C)C1c1ccc2c(c1)OCO2 (racemic) with A549 - growth at 10 µM? 95.9

Item CC1=C(C(=O)OC(C)C)C(c2ccc3c(c2)OCO3)NC(=O)N1 (racemic) with A549 - growth at 10 µM? 106

Item O=C1NC2=C(C(=O)c3ccccc32)C(c2ccc3c(c2)OCO3)N1 (racemic) with A549 - growth at 10 µM? 106

Item CC1=C(C(=O)c2ccccc2)C(c2ccc3c(c2)OCO3)NC(=S)N1 (racemic) with A549 - growth at 10 µM? 40.3

Item CC1=C(C(=O)c2ccccc2)C(c2ccc3c(c2)OCO3)NC(=O)N1 (racemic) with A549 - growth at 10 µM? 101

Item CC(=O)N1C(=S)NC(C)=C(C(=O)OC(C)C)C1c1ccc2c(c1)OCO2 (racemic) with A549 - growth at 10 µM? 99.4

====

Overview of recorded growth at 10 µM for various compounds
Test system: ACHN
Test: Growth inhibition of human ACHN cells assessed as growth percentage at 10 uM incubated for 48 hrs by sulforhodamine B assay relative to control
Type: functional
Conditions: read-out: Activity
Numbers only; they are read as %.

A selection of reference data follows.
CC1=C(C(=O)OCC(C)C)C(c2ccc3c(c2)OCO3)NC(=O)N1 (racemic): 105
CC(=O)C1=C(C)NC(=S)NC1c1ccc2c(c1)OCO2 (racemic): 103
CC1=C(C(=O)OCc2ccccc2)C(c2ccc3c(c2)OCO3)NC(=O)N1 (racemic): 99.4
O=C1C2=C(NC(=S)NC2c2ccc3c(c2)OCO3)c2ccccc21 (racemic): 106
CC1=C(C(=O)OC(C)C)C(c2ccc3c(c2)OCO3)NC(=O)N1 (racemic): 103

Item CC1=C(C(=O)OCC(C)C)C(c2ccc3c(c2)OCO3)NC(=S)N1 (racemic) with ACHN - growth at 10 µM? 98.5

Item CC1=C(C(=O)OC(C)C)C(c2ccc3c(c2)OCO3)NC(=S)N1 (racemic) with ACHN - growth at 10 µM? 99.3

Item CC1(C)CC(=O)C2=C(C1)NC(=O)NC2c1ccc2c(c1)OCO2 (racemic) with ACHN - growth at 10 µM? 109

Item CC(=O)N1C(=S)NC(C)=C(C(=O)OCc2ccccc2)C1c1ccc2c(c1)OCO2 (racemic) with ACHN - growth at 10 µM? 95.5

====

Overview of recorded growth at 10 µM for various molecules
Tested on: MCF7
Experiment: Growth inhibition of human MCF7 cells assessed as growth percentage at 10 uM incubated for 48 hrs by sulforhodamine B assay relative to control
Type: functional
Settings: MCF7, 48 h, read-out: Activity
Numbers only; they are read as %.

A selection of reference data follows.
CC(=O)N1C(=S)NC(C)=C(C(=O)OC(C)C)C1c1ccc2c(c1)OCO2 (racemic): 97.2
COCCOC(=O)C1=C(C)NC(=S)N(C(C)=O)C1c1ccc2c(c1)OCO2 (racemic): 102
CC1=C(C(=O)c2ccccc2)C(c2ccc3c(c2)OCO3)NC(=O)N1 (racemic): 97.5
CC1=C(C(=O)OC(C)C)C(c2ccc3c(c2)OCO3)NC(=O)N1 (racemic): 96.5
CC(=O)N1C(=S)NC(C)=C(C(=O)OCc2ccccc2)C1c1ccc2c(c1)OCO2 (racemic): 92.1

Find the recorded growth at 10 µM belonging to CC(=O)C1=C(C)NC(=O)NC1c1ccc2c(c1)OCO2 (racemic) and report it. 96.9

Find the recorded growth at 10 µM belonging to CC1(C)CC(=O)C2=C(C1)NC(=O)NC2c1ccc2c(c1)OCO2 (racemic) and report it. 98.3

====

Assay: Growth inhibition of human HEK293 cells assessed as cell viability at 25 ug incubated for 48 hrs by MTT assay relative to control
Assay type: cell-based
Settings: read-out: Activity
Please note: viability at 48 h, 25 ug exactly at 50% is Condition not met. Only values below 50% get Condition met.

Please review the following examples before continuing.
CC1=C(C(=O)OCc2ccccc2)C(c2ccc3c(c2)OCO3)n2c(nc3ccccc32)N1 (racemic): Condition met
COc1cccc2c1C(=O)c1c(O)c3c(c(O)c1C2=O)C[C@@](O)(C(=O)CO)C[C@@H]3O[C@H]1C[C@H](N)[C@H](O)[C@H](C)O1: Condition met

Query compound follows.
Determine if CC1=C(C(=O)c2ccccc2)C(c2ccc3c(c2)OCO3)NC(=S)N1 (racemic) shows viability at 48 h, 25 ug strictly lower than 50%. Condition not met

====

Test: Growth inhibition of human HEK293 cells assessed as cell viability at 1.56 ug incubated for 48 hrs by MTT assay relative to control
Format: cell-based
Conditions: read-out: Activity
property name: viability at 48 h, 1.56 ug
Note to self: number, then unit, no commentary.

A selection of reference data follows.
CC1(C)CC(=O)C2=C(C1)NC(=O)NC2c1ccc2c(c1)OCO2 (racemic): 71.5%
CC(=O)N1C(=S)NC(C)=C(C(=O)OCc2ccccc2)C1c1ccc2c(c1)OCO2 (racemic): 69.3%
CC(=O)C1=C(C)Nc2nc3ccccc3n2C1c1ccc2c(c1)OCO2 (racemic): 70.7%
CC1=C(C(=O)OCc2ccccc2)C(c2ccc3c(c2)OCO3)n2c(nc3ccccc32)N1 (racemic): 67.2%
CC1=C(C(=O)c2ccccc2)C(c2ccc3c(c2)OCO3)NC(=S)N1 (racemic): 79.5%

Next:
Find the recorded viability at 48 h, 1.56 ug belonging to COc1cccc2c1C(=O)c1c(O)c3c(c(O)c1C2=O)C[C@@](O)(C(=O)CO)C[C@@H]3O[C@H]1C[C@H](N)[C@H](O)[C@H](C)O1 and report it. 64.7%
